procedure.summary: Thermal stability testing at 60° C. of ingredient and 1% premix (HPLC)
Type: physicochemical
setup.conditions: 1% Premix of an ingredient (corncob meal), Day 5
measurement.name: Residual amount of active ingredient (%)

// Residual amount of active ingredient lookup, compound = CC(=O)OC1=C(CCC(C)C)C(=O)C(CCC(C)C)(CCC(C)C)C(O)=C1C(=O)C(C)C [hexahydro-colupulone mono-acetate, Hexahydro-Colupulone Mono-Acetate] , result: 99.40

Residual amount of active ingredient reported for this compound CCC(=O)OC1=C(CCC(C)C)C(=O)C(CCC(C)C)(CCC(C)C)C(O)=C1C(=O)C(C)C [hexahydro-colupulone mono-propionate] : 98.27

Item: CC(C)CCC1=C(O)C(C(=O)C(C)C)=C(O)C(CCC(C)C)(CCC(C)C)C1=O [hexahydro-colupulone, reference compound] | Residual amount of active ingredient: 97.02

# Residual amount of active ingredient (compound: CCCC(=O)OC1=C(CCC(C)C)C(=O)C(CCC(C)C)(CCC(C)C)C(O)=C1C(=O)C(C)C [hexahydro-colupulone mono-butyrate] ) is 98.21
